- tested_system: human Nav1.1 (Homo sapiens, UniProt P35498)
- Construct: host or cells: HEK293
- experiment_description: Amplification of Nav1.1-derived voltage-dependent sodium current (Nav1.1 current), cell line stably expressing human Nav1.1, automated patch clamp
- Type: cell-based
- condition_details: compound 50 μmol/L; HEK293 stably expressing human Nav1.1
- Description: Test 1: Evaluation of the Amplification of Nav1.1-Derived Voltage-Dependent Sodium Current (Nav1.1 Current) by Using a Cell Line Stably Expressing Human Nav1.1 (1) Preparation of Test Compounds […] The effect of test compounds on the amplification of Nav1.1-derived voltage-dependent sodium current was evaluated by using a cell line stably expressing human Nav1.1 and HTS automated patch clamp system. […] The Nav1.1 current amplification rates of test compounds were calculated by the following formula: […]
value_kind: Nav1.1 current amplification rate (%)
Numbers only, in %.

                                   compound  readout_unit  numeric_value
0  Cc1c(NC(=O)Cn2nc(C3=CCC(C)CC3)ccc2=O)ccc2ncnn12 (racemic)             %             32
1  COC1CN(Cc2cncc(NC(=O)Cn3nc(C4=CCC(C)CC4)ccc3=O)c2)C1 (racemic)             %             37
2  Cc1ccc(-c2ccc(=O)n(CC(=O)N3CCc4ccccc43)n2)cc1             %             29
3  CC1CC=C(c2ccc(=O)n(CC(=O)N3CCc4c(C=C5CCNCC5)cccc43)n2)CC1 (racemic)             %             55

Ask: Indicate its recorded Nav1.1 current amplification rate (%); the compound in question is CC1CC=C(c2ccc(=O)n(CC(=O)N3CCc4c(-c5cc[nH]n5)ccnc43)n2)CC1 (racemic)
Reply: 212

---

- tested_system: human Nav1.5 (Homo sapiens)
- Construct: expressed in transfected cells; host or cells: CHO-K1 (T-REx System, ThermoFisher Scientific)
- Sequence (Q14524 1-2015 isoform Q14524-2): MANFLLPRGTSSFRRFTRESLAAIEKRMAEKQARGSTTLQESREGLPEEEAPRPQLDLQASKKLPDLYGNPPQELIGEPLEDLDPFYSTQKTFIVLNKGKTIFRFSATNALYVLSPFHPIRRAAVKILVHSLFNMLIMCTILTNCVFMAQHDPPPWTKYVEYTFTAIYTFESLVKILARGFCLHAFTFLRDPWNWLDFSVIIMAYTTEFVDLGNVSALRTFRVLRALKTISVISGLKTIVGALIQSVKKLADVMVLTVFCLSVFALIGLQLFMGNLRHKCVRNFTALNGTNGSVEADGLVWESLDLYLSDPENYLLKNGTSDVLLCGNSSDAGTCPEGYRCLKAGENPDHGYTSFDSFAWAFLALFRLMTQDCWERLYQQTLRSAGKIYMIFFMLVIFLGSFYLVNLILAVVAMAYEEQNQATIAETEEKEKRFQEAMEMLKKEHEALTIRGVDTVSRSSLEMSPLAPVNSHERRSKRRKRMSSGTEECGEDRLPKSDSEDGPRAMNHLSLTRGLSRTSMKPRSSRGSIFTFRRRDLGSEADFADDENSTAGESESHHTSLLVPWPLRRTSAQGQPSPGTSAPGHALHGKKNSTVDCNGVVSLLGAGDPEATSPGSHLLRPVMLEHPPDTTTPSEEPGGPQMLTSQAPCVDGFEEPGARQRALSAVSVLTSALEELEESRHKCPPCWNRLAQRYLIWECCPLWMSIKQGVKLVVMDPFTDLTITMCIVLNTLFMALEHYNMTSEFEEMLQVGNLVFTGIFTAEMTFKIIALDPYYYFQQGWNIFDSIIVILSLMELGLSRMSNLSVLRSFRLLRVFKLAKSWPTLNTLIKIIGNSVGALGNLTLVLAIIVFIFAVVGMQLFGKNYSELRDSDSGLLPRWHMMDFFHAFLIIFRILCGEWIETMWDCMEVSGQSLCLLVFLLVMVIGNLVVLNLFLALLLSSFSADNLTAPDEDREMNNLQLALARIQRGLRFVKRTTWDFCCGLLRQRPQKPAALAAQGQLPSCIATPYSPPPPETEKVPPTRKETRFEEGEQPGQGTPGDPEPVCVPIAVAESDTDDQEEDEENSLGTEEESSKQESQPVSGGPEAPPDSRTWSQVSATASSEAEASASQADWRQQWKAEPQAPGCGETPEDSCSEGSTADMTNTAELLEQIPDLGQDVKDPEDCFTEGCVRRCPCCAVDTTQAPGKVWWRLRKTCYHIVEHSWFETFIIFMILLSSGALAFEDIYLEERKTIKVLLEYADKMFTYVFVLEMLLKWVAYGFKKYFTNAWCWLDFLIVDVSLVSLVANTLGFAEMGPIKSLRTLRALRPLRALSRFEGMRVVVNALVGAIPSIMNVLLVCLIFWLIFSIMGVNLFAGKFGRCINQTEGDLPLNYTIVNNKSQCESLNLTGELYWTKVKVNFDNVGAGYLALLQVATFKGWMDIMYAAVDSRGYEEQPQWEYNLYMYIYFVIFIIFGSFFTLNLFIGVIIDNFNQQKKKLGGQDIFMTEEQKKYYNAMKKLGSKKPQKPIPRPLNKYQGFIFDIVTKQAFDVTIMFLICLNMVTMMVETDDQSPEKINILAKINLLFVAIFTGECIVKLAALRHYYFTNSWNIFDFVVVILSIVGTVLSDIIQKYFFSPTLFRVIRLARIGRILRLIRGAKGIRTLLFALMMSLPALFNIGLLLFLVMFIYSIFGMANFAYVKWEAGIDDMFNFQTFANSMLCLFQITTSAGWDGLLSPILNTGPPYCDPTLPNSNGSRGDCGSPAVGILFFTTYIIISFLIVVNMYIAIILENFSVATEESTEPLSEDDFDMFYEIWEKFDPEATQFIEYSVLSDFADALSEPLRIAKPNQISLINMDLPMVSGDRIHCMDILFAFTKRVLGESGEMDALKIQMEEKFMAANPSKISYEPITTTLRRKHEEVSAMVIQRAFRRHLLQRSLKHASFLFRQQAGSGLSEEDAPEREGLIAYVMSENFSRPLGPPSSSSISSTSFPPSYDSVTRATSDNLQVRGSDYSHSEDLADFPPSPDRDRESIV
- experiment_description: Amplification of Nav1.5-derived voltage-dependent sodium current (Nav1.5 current), cell line stably expressing human Nav1.5, automated patch clamp
- Type: cell-based
- condition_details: 10 μmol/L compound; change of the area under the curve of Nav1.5 current (Test Result 1); read-out: Nav1.5 current amplification rate (%)
value_kind: activation at 10 µM (%)
Give bare numbers, in %.

In [3]: df
Out[3]:
                                   molecule           value_kind  readout_unit  numeric_value
0  CC1CCN(c2ccc(=O)n(CC(=O)Nc3cc(F)c4ocnc4c3)n2)CC1 [Example 216]  activation at 10 µM             %              3

The following molecules each have a reported value; give each one's activation at 10 µM.
1. Cc1cc(NC(=O)Cn2nc(N3CCC4(CCCC4)C3)c(C)cc2=O)cc(C)n1 [Example 199]
2. O=C(Cn1nc(N2CCC3(CCC3)C2)ccc1=O)N1CCc2cc(N3CCOCC3)ccc21 [Example 184]
3. O=C(Cn1nc(N2CCC3C(C2)C3(F)F)ccc1=O)Nc1ccc2ocnc2c1 (stereo not shown) [Example 161]
4. CC1CCN(c2ccc(=O)n(CC(=O)Nc3ccc4ocnc4c3)n2)CC1 [Example 50]
5. O=C(Cn1nc(N2CCC3(CCC3)CC2)ccc1=O)Nc1ccn2ccnc2c1 [Example 168]

Reply:
[1, 16, -1, 4, 23]

The following molecules each have a reported value; give each one's activation at 10 µM.
1. O=C(Cn1nc(N2CCC3(CCC3)CC2)ccc1=O)Nc1ccc2scnc2c1 [Example 127]
2. O=C(Cn1nc(N2CCC3(CCC3)C2)c(N2CCCC2)cc1=O)Nc1ccc2ocnc2c1 [Example 208]
3. Cc1c(N2CCC3(CCCC3)C2)nn(CC(=O)Nc2ccc3ocnc3c2)c(=O)c1C [Example 165]
4. Cc1c(N2CCC(C)(C)CC2)nn(CC(=O)Nc2ccn3ccnc3c2)c(=O)c1C [Example 178]
5. CC1(C)CCC=C(c2ccc(=O)n(CC(=O)Nc3ccc4ocnc4c3)n2)C1 [Example 129]
6. Cc1cc(N2CCC(C)CC2)nn(CC(=O)Nc2ccc3ocnc3c2)c1=O [Example 200]
7. O=C(Cn1nc(N2CCC3(CCCC3)CC2)ccc1=O)Nc1ccc2ocnc2c1 [Example 135]

Reply:
1. 58
2. 18
3. 11
4. 1
5. 25
6. 5
7. 2

The following molecules each have a reported value; give each one's activation at 10 µM.
1. Cc1cc(NC(=O)Cn2nc(N3CCC4(CCCC4)C3)cc(C)c2=O)cc(C)n1 [Example 198]
2. O=C(Cn1nc(N2CCC3(CCC3)C2)ccc1=O)Nc1ccc2ocnc2c1 [Example 131]
3. Cc1c(N2CCC3(CCC3)C2)nn(CC(=O)N2CCc3c(N4CCOCC4)cccc32)c(=O)c1C [Example 226]
4. CC1(C)CCN(c2ccc(=O)n(CC(=O)Nc3ccn4ccnc4c3)n2)CC1 [Example 192]
5. COC(=O)c1ccc(NC(=O)Cn2nc(N3CCC(C)CC3)ccc2=O)cn1 [Example 182]
6. O=C(Cn1nc(N2CCC3(CCCC3)C2)ccc1=O)Nc1ccc2scnc2c1 [Example 128]
7. O=C(Cn1nc(N2CC3C(C2)C3(F)F)ccc1=O)Nc1ccc2ocnc2c1 (stereo not shown) [Example 162]

Reply:
[-9, 7, 71, 2, 17, 56, 0]

The following molecules each have a reported value; give each one's activation at 10 µM.
1. O=C(Cn1nc(N2CCC3(CCC3)C2)ccc1=O)N1CCN(c2ccccc2)CC1 [Example 188]
2. Cc1cc2cc(NC(=O)Cn3nc(N4CCC(C)CC4)ccc3=O)ccc2o1 [Example 175]
3. CN1CCN(c2cccc3c2CCN3C(=O)Cn2nc(N3CCC(C)(C)CC3)ccc2=O)CC1 [Example 223]
4. CN(C)c1cc(N2CCC(C)(C)CC2)nn(CC(=O)Nc2ccn3ccnc3c2)c1=O [Example 211]
5. Cc1cn2ccc(NC(=O)Cn3nc(N4CCC(C)CC4)ccc3=O)cc2n1 [Example 174]
6. CC1CCN(c2ccc(=O)n(CC(=O)N3CCc4cc(N5CCCC5=O)ccc43)n2)CC1 [Example 219]
7. Cc1cnc2cc(NC(=O)Cn3nc(N4CCC(C)CC4)ccc3=O)ccn12 [Example 232]

Reply:
1. -2
2. 1
3. 0
4. 8
5. 4
6. 12
7. 8

The following molecules each have a reported value; give each one's activation at 10 µM.
1. Cc1c(N2CCC3(CCCC3)C2)nn(CC(=O)Nc2ccn3ccnc3c2)c(=O)c1C [Example 166]
2. O=C(Cn1nc(N2CCCC3(CCCC3)C2)ccc1=O)Nc1ccc2ocnc2c1 [Example 132]

Reply:
45
-2

The following molecules each have a reported value; give each one's activation at 10 µM.
1. Cc1cc(N2CCC3(CCCC3)C2)nn(CC(=O)Nc2ccc3ocnc3c2)c1=O [Example 193]
2. Cc1nc2cc(NC(=O)Cn3nc(N4CCC(C)CC4)ccc3=O)cc(Cl)c2o1 [Example 215]
3. N#Cc1ccc(NC(=O)Cn2nc(N3CCCCCC3)ccc2=O)cn1 [Example 119]
4. N#Cc1ccc(NC(=O)Cn2nc(N3CCC4(CCC4)CC3)ccc2=O)cn1 [Example 124]
5. O=C(Cn1nc(C2=CCC(F)(F)CC2)ccc1=O)Nc1cncc(C(F)(F)F)c1 [Example 112]

Reply:
0
18
25
70
9
